This collection of values is drawn from ChEMBL document CHEMBL1137710.

- Tested on: A549
- Test description: Growth inhibition of human A549 cells after 48 hrs by sulforhodamine B assay
- Format: functional
- Condition parameters: A549, 48 h
Endpoint: GI50 (µM)
# number only, unit µM dropped from output

Nc1cc(N)c2nc(-c3ccccc3)c(Sc3ccc(F)cc3)nc2c1	13.5
Nc1cc(N)c2nc(-c3ccccc3)c(Sc3ccc(Cl)c(Cl)c3)nc2c1	13.5

Field GI50 (entry COc1ccc(CNc2nc3cc(N)cc(N)c3nc2-c2ccccc2)cc1 ) reads 21.4

###

Form field: CC50 (one value per entry).
- Tested on: SK-MEL-2
- Test description: Growth inhibition of human SK-MEL-2 cells after 48 hrs by sulforhodamine B assay
- Format: functional
- Condition parameters: SK-MEL-2, 48 h, read-out: pLC50 (the source's name) (converted)

The following compounds have reported results that may help.
Nc1cc(N)c2nc(-c3ccccc3)c(Sc3ccc(F)cc3)nc2c1	> 100 µM
COc1cc(CNc2nc3cc(N)cc(N)c3nc2-c2ccccc2)cc(OC)c1	> 100 µM
COc1ccc(CNc2nc3cc(N)cc(N)c3nc2-c2ccccc2)cc1OC	> 100 µM

Field CC50 (entry COc1cc(CNc2nc3cc(N)cc(N)c3nc2-c2ccccc2)cc(OC)c1OC ) reads > 50.1 µM

Field CC50 (entry COc1ccc(CNc2nc3cc(N)cc(N)c3nc2-c2ccccc2)cc1 ) reads 57.5 µM
